Reported residual activity values are given for each entry in this list.
# Tested on: MARK1 (human) (UniProt Q9P0L2)
# Sequence (Q9P0L2 whole entry, looked up): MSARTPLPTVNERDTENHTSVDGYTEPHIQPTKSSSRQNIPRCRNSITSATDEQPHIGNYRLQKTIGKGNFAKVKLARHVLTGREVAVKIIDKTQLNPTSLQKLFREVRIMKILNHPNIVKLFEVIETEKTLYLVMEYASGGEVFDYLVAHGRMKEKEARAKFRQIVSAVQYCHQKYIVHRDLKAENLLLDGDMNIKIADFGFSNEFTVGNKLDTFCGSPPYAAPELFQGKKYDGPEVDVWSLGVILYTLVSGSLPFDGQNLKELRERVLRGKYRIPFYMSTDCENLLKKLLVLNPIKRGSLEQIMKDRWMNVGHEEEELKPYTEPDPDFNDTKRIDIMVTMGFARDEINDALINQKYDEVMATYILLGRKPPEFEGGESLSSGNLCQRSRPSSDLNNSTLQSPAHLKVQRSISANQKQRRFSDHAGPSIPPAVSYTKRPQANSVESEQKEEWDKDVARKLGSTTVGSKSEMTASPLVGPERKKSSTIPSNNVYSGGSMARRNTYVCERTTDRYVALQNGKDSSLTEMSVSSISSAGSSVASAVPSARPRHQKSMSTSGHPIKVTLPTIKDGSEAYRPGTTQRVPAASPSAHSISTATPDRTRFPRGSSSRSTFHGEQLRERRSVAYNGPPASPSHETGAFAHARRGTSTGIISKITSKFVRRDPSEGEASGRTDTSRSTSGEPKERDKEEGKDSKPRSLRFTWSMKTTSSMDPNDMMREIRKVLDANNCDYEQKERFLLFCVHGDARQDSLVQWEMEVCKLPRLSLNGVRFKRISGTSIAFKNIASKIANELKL
# Protocol text: radiometric filter-binding kinase assay, Kinase HotSpot
# Condition set: compound 0.5 µM; ATP 10 µM

{"Query smiles": "CCCCc1c(-c2ccc(O)cc2)[nH]c2nccnc12", "residual activity (%)": 91.9}
{"Query smiles": "O=c1[nH]c2ccccc2n1C1CCN(Cc2ccc(-c3nc4cc5[nH]cnc5cc4nc3-c3ccccc3)cc2)CC1", "residual activity (%)": 104}
{"Query smiles": "O=C(c1ccccc1)c1ccc(N2CCOCC2)cc1O", "residual activity (%)": 97.6}
{"Query smiles": "FC(F)(F)c1ccc(/C=C/c2nc(COc3ccc(CCCCn4ccnn4)cc3)co2)cc1", "residual activity (%)": 102}
{"Query smiles": "COc1cc2c(Nc3ccc(Br)cc3F)ncnc2cc1OCC1CCN(C)CC1", "residual activity (%)": 83.7}
{"Query smiles": "COc1cccc(-c2cc(=O)c3ccccc3o2)c1N", "residual activity (%)": 96.9}
